# Test system: MCF-7/MX
# TEST SUMMARY: MTT antiproliferative activity assay
# Type: cell-based
# CONDITION INFO: Homo sapiens, MCF7/MX; MTT, 48 hr; read-out: IC50 MCF-7/MX
Could you please mark satisfied for values of IC50 below 60 µM and not satisfied for values at or above it?

# example entries with known answers
COc1cc2nc(C)cc(Nc3ccccc3Oc3ccccc3)c2c(OC)c1OC satisfied
COc1cc2nc(/C=C/c3ccccc3)cc(Cl)c2c(OC)c1OC not satisfied

Take the molecule `COc1ccc(Nc2cc(C)nc3cc(OC)c(OC)c(OC)c23)cc1` and say whether its IC50 is less than 60 µM.
not satisfied

Hello, I'm reviewing records and need to know if IC50 of `COc1cc(Nc2cc(C)nc3cc(OC)c(OC)c(OC)c23)cc(OC)c1OC` is below 60 µM. Could you check?
not satisfied

I wonder whether `COc1ccc(/C=C/c2cc(Cl)c3c(OC)c(OC)c(OC)cc3n2)cc1` has IC50 below 60 µM. Can you tell?
satisfied

Is it true that IC50 reported for `COc1cc2nc(/C=C/c3ccc(F)cc3)cc(Cl)c2c(OC)c1OC` is less than 60 µM?
not satisfied

Please state whether IC50 is below 60 µM for `COc1ccc(Nc2cc(C)nc3cc(OC)c(OC)c(OC)c23)cc1O`
not satisfied

Just wondering, is IC50 of `COc1cc2nc(/C=C/c3ccc([N+](=O)[O-])cc3)cc(Cl)c2c(OC)c1OC` below 60 µM?
not satisfied

Report whether reported IC50 is lower than 60 µM (strictly) for `COc1ccc(Nc2cc(C)nc3cc(OC)c(OC)c(OC)c23)cc1OC`
not satisfied

* * *

TEST READOUT: melting point

Some entries whose results are on file:
COMPOUND	melting point
COc1cc2nc(/C=C/c3ccccc3)cc(Cl)c2c(OC)c1OC [Compound 9a]	110 to 113 °C
COc1ccc(Nc2cc(C)nc3cc(OC)c(OC)c(OC)c23)cc1O [Compound 7d]	182 to 184 °C
COc1ccc(/C=C/c2cc(Cl)c3c(OC)c(OC)c(OC)cc3n2)cc1OC [Compound 9e]	122 to 124 °C
COc1cc2nc(C)cc(Nc3ccccc3Oc3ccccc3)c2c(OC)c1OC [Compound 7g]	150 to 153 °C
COc1cc2nc(/C=C/c3ccc(F)cc3)cc(Cl)c2c(OC)c1OC [Compound 9c]	173 to 176 °C

For each listed entry, give its melting point.
1. COc1ccc(Nc2cc(C)nc3cc(OC)c(OC)c(OC)c23)cc1OC [Compound 7b]
2. COc1cc2nc(/C=C/c3ccc([N+](=O)[O-])cc3)cc(Cl)c2c(OC)c1OC [Compound 9g]

["182 to 185 °C", "162 to 164 °C"]

* * *

What melting point was measured for each of the following?

The following compounds have reported results that may help.
COc1ccc(Nc2cc(C)nc3cc(OC)c(OC)c(OC)c23)cc1 191 to 194 °C
COc1cc(/C=C/c2cc(Cl)c3c(OC)c(OC)c(OC)cc3n2)cc(OC)c1OC 163 to 165 °C
COc1cc(Nc2cc(C)nc3cc(OC)c(OC)c(OC)c23)cc(OC)c1OC 175 to 178 °C
COc1cc2nc(C)cc(Nc3ccc(Oc4ccccc4)cc3)c2c(OC)c1OC 192 to 195 °C

# ---- query compound ----
melting point measured on `COc1cc2nc(/C=C/c3ccc(C)cc3)cc(Cl)c2c(OC)c1OC` = 153 to 155 °C

* * *

Assign IC50 to each entry below.
# Test system: MCF-7/MX
# TEST SUMMARY: MTT antiproliferative activity assay
# Type: cell-based
# CONDITION INFO: Homo sapiens, MCF7/MX; MTT, 48 hr; read-out: IC50 MCF-7/MX

MOLECULE	RECORDED MEASUREMENT
COc1ccc(/C=C/c2cc(Cl)c3c(OC)c(OC)c(OC)cc3n2)cc1OC [Compound 9e]	> 100 µM

Report IC50 for every entry below.
1. COc1cc2nc(C)cc(Nc3ccc(C(=O)c4ccccc4)cc3)c2c(OC)c1OC [Compound 7e]
2. COc1cc2nc(C)cc(Nc3ccc(Oc4ccccc4)cc3)c2c(OC)c1OC [Compound 7f]
3. COc1cc2nc(/C=C/c3ccc(C)cc3)cc(Cl)c2c(OC)c1OC [Compound 9b]
4. COc1cc(/C=C/c2cc(Cl)c3c(OC)c(OC)c(OC)cc3n2)cc(OC)c1OC [Compound 9f]

1: 10.9 µM; 2: 9.04 µM; 3: > 100 µM; 4: 28 µM

* * *

# System: A2780/RCIS
# TEST SUMMARY: MTT antiproliferative activity assay
# Type: cell-based
# CONDITION INFO: Homo sapiens, A2780; MTT, 48 hr; read-out: IC50 A2780/RCIS
Provide the recorded pIC50 for the entries that follow.
Answers are plain numbers, as −log10 of the molar value.

COMPOUND	pIC50
COc1ccc(/C=C/c2cc(Cl)c3c(OC)c(OC)c(OC)cc3n2)cc1 [Compound 9d]	4.47
COc1ccc(Nc2cc(C)nc3cc(OC)c(OC)c(OC)c23)cc1O [Compound 7d]	4.35

Next:
response.value for COc1cc(/C=C/c2cc(Cl)c3c(OC)c(OC)c(OC)cc3n2)cc(OC)c1OC [Compound 9f] (field: pIC50) = 4.93

* * *

# Test system: A2780/RCIS
# TEST SUMMARY: MTT antiproliferative activity assay
# Assay type: cell-based
# CONDITION INFO: Homo sapiens, A2780; MTT, 48 hr; read-out: IC50 A2780/RCIS
Exercise: for every item that follows, state its recorded pIC50.
Give bare numbers, as −log10 of the molar value.

Before answering, review these 5 worked examples.
COc1ccc(Nc2cc(C)nc3cc(OC)c(OC)c(OC)c23)cc1OC 4.29
COc1cc2nc(C)cc(Nc3ccc(C(=O)c4ccccc4)cc3)c2c(OC)c1OC 5.18
COc1cc2nc(/C=C/c3ccccc3)cc(Cl)c2c(OC)c1OC 4.34
COc1ccc(Nc2cc(C)nc3cc(OC)c(OC)c(OC)c23)cc1 4.52
COc1cc2nc(C)cc(Nc3ccc(Oc4ccccc4)cc3)c2c(OC)c1OC 5.30

Reported pIC50 of `COc1cc2nc(C)cc(Nc3ccccc3Oc3ccccc3)c2c(OC)c1OC` : 5.00

* * *

Kindly supply the reported IC50 values for the records listed here.
# Tested on: A2780/RCIS
# TEST SUMMARY: MTT antiproliferative activity assay
# Format: cell-based
# CONDITION INFO: Homo sapiens, A2780; MTT, 48 hr; read-out: IC50 A2780/RCIS

Record excerpt, results attached:
COc1cc(Nc2cc(C)nc3cc(OC)c(OC)c(OC)c23)cc(OC)c1OC > 100 µM
COc1cc2nc(/C=C/c3ccc(F)cc3)cc(Cl)c2c(OC)c1OC > 100 µM

// moving on: another record for IC50
Sure, the documented IC50 for `COc1cc2nc(/C=C/c3ccc([N+](=O)[O-])cc3)cc(Cl)c2c(OC)c1OC` is > 100 µM
